meta.source: ChEMBL document CHEMBL1131245

Protein target, amino acids: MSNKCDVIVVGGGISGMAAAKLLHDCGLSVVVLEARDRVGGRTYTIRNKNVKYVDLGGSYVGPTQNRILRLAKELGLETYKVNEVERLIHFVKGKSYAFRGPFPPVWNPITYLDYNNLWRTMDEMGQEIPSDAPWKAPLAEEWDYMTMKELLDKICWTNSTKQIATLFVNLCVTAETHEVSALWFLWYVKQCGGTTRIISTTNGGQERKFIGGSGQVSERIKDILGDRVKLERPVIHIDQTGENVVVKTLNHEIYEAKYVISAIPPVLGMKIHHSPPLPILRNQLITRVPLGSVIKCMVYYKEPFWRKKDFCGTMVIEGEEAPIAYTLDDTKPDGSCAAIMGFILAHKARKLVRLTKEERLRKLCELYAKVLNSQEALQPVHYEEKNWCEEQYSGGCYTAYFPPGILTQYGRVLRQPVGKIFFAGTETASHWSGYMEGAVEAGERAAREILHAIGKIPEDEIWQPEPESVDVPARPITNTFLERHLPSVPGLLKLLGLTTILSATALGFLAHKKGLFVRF
RECORDED_ENDPOINT: IC50 (µM)

>  <COMPOUND>
O=S1(=O)c2ccccc2Oc2cccc(C(O)CO)c21 (stereo in doubt; 44)

>  <UNIT_ABBREVIATION>
µM

>  <VALUE_MEASURED>
30

$$$$
